Target or system: Drosophila OR85b (Drosophila melanogaster)
Construct: expressed in transfected cells
Sequence (Q9VHQ7 whole entry): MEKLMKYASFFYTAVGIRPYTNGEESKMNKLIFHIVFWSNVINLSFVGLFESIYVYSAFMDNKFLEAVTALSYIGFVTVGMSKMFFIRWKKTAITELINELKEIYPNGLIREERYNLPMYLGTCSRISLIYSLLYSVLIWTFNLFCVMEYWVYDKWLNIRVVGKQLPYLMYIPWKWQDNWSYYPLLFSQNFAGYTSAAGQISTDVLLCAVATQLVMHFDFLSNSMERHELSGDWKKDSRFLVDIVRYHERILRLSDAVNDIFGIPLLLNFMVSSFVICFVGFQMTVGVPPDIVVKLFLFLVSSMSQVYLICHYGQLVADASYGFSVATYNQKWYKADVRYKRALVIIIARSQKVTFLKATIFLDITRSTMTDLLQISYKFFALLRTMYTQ
Sequence (Q9VNB5 whole entry partner): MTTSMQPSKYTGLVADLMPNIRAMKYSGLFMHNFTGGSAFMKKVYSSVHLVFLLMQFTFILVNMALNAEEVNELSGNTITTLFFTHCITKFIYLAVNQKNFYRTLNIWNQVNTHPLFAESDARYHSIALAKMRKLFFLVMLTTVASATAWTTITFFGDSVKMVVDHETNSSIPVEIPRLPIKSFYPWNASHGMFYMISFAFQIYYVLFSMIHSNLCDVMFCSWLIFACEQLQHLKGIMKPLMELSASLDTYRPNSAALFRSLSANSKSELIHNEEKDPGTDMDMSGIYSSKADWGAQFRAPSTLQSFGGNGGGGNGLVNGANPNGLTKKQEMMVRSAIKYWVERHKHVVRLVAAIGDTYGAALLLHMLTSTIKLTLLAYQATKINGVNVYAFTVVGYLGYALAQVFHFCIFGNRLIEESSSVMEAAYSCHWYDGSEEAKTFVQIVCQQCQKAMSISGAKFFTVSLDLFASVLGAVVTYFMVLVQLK
Procedure summary: Calcium ion fluorescence (GCaMP6) assay, OR85b stable HEK293 cell line
Assay type: cell-based
Conditions: OR85b cell line; cc. 100 µM; VUAA1-normalized response, mean of biological replicates
Test readout: Average response

Example results:
{"columns": ["Molecule", "Target or system", "Average response"],
 "data": [
  ["C=CCc1ccc(O)c(OC)c1", "Drosophila OR85b (Drosophila melanogaster)", 0.09],
  ["CC1=CCC[C@@]2(C)[C@@H]3CC[C@]12CC3(C)C [(−)-α-neoclovene]", "Drosophila OR85b (Drosophila melanogaster)", 0.0165],
  ["C=C(C)[C@H]1CC=C(C)CC1 [(R)-(+)-limonene]", "Drosophila OR85b (Drosophila melanogaster)", 0.00],
  ["CCCC(O)CC (stereo not drawn)", "Drosophila OR85b (Drosophila melanogaster)", 0.0225],
  ["COC(=O)c1ccccc1O [methyl salicylate]", "Drosophila OR85b (Drosophila melanogaster)", 0.13]
]}

We now examine a further molecule.
query: Determine from records and report Average response for CCCCC(C)O (stereo not drawn)
result: 0.00

* * *

Target or system: Drosophila OR13a (Drosophila melanogaster, UniProt Q9VXL0)
Construct: expressed in transfected cells
Sequence (Q9VXL0 whole entry): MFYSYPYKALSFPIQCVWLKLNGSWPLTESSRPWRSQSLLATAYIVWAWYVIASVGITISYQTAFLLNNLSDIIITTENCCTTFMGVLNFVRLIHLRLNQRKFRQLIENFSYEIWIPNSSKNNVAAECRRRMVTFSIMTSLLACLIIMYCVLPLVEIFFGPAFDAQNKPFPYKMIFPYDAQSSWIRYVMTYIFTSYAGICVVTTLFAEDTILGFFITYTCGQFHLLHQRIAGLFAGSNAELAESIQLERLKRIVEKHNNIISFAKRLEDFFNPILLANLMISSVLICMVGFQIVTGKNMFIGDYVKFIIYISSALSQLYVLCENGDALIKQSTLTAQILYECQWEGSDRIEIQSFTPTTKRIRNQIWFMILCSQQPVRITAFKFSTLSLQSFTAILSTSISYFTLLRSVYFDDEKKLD
Sequence (Q9VNB5 whole entry partner): as the sequence (Q9VNB5 whole entry partner) above
Procedure summary: Calcium ion fluorescence (GCaMP6) assay, OR13a stable HEK293 cell line
Assay type: cell-based
Conditions: ligand concentration 100 (unit not given); threshold 0.05, below shown as 0
Test readout: DF norm AVERAGE OR13a
Lab note: jot the number down without any unit.

Please review the entries below; each comes with its answer.
{"columns": ["Compound", "DF norm AVERAGE OR13a"],
 "data": [
  ["CCCCCCCCC=O", 0],
  ["CCOC(=O)c1ccccc1 [ethyl benzoate]", 0],
  ["CCOC(=O)CC [ethyl propionate]", 0],
  ["CC1=CCC2CC1C2(C)C (centres unmarked)", 0]
]}

query: Hello, please tell me recorded DF norm AVERAGE OR13a for this one: "Cc1ccc(C(C)C)cc1"
result: 0

query: Output measured DF norm AVERAGE OR13a for this item: "CCc1ccccc1"
result: 0

* * *

Target or system: Drosophila OR47a (Drosophila melanogaster, UniProt P81921)
Construct: expressed in transfected cells
Sequence (P81921 whole entry): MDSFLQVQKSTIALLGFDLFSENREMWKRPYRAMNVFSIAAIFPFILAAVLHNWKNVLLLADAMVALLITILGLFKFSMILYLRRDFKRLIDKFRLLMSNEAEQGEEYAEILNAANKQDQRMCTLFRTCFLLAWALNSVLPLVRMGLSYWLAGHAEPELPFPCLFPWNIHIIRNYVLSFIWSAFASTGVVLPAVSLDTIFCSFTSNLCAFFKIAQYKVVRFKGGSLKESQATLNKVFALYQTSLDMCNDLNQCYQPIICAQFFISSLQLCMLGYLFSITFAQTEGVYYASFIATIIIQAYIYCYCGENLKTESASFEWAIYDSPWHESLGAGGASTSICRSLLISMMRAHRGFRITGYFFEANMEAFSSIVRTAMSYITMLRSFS
Sequence (Q9VNB5 whole entry partner): as the sequence (Q9VNB5 whole entry partner) above
Procedure summary: Calcium ion fluorescence (GCaMP6) assay, OR47a stable HEK293 cell line
Assay type: cell-based
Conditions: EC50, fitted average curve, the 14th table; fit to the average curve, n 0.854956
Test readout: pEC50
Reminder that pEC50 means the negative base-10 logarithm of the concentration expressed in mol/L.

query: Supply recorded pEC50 for CCCCCOC(C)=O [pentyl acetate] here.
result: 5.59

* * *

Target or system: Drosophila OR71a (Drosophila melanogaster, UniProt Q9VUK5)
Construct: expressed in transfected cells
Sequence (Q9VUK5 whole entry): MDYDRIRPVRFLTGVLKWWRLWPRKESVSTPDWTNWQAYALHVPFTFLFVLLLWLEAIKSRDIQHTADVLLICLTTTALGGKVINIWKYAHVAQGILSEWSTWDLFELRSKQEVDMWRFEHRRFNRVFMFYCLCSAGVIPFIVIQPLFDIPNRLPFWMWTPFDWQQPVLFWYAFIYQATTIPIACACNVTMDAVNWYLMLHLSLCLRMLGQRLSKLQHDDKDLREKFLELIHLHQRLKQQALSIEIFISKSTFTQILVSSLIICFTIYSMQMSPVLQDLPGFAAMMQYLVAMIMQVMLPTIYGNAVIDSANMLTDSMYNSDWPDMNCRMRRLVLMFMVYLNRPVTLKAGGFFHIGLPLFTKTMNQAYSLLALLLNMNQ
Sequence (Q9VNB5 whole entry partner): as the sequence (Q9VNB5 whole entry partner) above
Procedure summary: Calcium ion fluorescence (GCaMP6) assay, OR71a stable HEK293 cell line
Format: cell-based
Conditions: ligand concentration 1 (unit not given); 0.05 threshold, values below shown as 0
Test readout: DF norm AVERAGE OR71a
Could you keep your reply to the number by itself?

Please review the following examples before continuing.
{"columns": ["Compound", "DF norm AVERAGE OR71a"],
 "data": [
  ["CC/C=C\\CCOC(C)=O [z3-hexenyl acetate]", 0],
  ["Cc1ccccc1", 0],
  ["CC1=CCC23CC1C(C)(C)C2CCC3C (stereo not shown)", 0]
]}

query: Look up and report measured DF norm AVERAGE OR71a for this entry: "C=Cc1ccccc1"
result: 0

query: Please indicate DF norm AVERAGE OR71a recorded for "CCCCCCCCCCC"
result: 0

query: Determine from records and report DF norm AVERAGE OR71a for "CCCCCCCCCCCCCC"
result: 0

query: Note down DF norm AVERAGE OR71a recorded for "CC/C=C\CCO"
result: 0
